- target-entity: hPR-A (progesterone receptor isoform A) (Homo sapiens, UniProt P06401)
- Construct: expressed in transfected cells; host or cells: SK-N-MC (human neuroblastoma) cells, stably transfected with phPR-2 (PR-A plasmid) plus pRSV-neo and pMTV-LUC
- Sequence (P06401 165-933): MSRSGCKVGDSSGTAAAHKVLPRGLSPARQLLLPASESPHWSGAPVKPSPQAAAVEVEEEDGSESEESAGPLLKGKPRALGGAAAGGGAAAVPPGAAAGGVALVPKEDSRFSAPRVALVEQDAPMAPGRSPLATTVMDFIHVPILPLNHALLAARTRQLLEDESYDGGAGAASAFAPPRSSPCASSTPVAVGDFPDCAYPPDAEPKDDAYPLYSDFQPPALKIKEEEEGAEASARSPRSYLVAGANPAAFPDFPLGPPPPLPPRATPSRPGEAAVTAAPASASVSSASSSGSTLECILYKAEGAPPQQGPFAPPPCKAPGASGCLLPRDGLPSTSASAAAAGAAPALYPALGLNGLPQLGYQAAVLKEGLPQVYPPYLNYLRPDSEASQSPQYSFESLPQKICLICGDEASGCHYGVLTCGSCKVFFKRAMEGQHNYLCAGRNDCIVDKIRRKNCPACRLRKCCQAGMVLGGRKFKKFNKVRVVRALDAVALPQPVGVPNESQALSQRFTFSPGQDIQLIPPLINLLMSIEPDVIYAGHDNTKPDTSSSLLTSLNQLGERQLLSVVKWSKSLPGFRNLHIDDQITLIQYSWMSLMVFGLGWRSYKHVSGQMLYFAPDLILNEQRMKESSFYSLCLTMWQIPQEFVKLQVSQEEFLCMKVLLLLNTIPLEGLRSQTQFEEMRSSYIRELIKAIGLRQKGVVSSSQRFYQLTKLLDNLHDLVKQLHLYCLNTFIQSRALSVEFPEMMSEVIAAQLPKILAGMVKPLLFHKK
- assay-text: Transactivation assay, SK-N-MC cells stably transfected with hPR-A and MTV-LUC reporter
- Type: cell-based
- condition-set: SK-N-MC hPR-A/MTV-LUC cells; LUC activity relative to R5020 10^-7 mol/l = 100%, 1% ethanol = 0%; 24 h incubation; read-out: Agonism efficacy (PR-A)
Label condition met for high-side Emax (at or above 80%) and condition not met for low-side Emax (below it).

hey, is Emax for this one >= 80%? CC(=O)O[C@]1(C(C)=O)CCC2C3C[C@H](C)C4=CC(=O)CC[C@@]45CC=C[C@@H](C[C@@]21C)C35 (stereo partly drawn)
condition not met

Could you verify whether the entry CC(CC(O)(CNc1ccc2c(c1)COC2=O)C(F)(F)F)c1ccccc1 (stereo not drawn) shows Emax of no less than 80%?
condition not met

Evaluate CC(=O)O[C@]1(C(C)=O)CCC2C3C=C(Cl)C4=CC(=O)CC[C@@]45CC[C@@H](C[C@@]21C)C35 (stereo partly drawn) : Emax at minimum 80%?
condition not met

Determine whether this molecule has Emax no lower than 80%: C#C[C@]1(O)C=CC2C3CCC4=CC(=O)CC[C@@]45CC=C[C@@H](C[C@@]21C)C35 (stereo partly drawn)
condition met

Hi, just wondering whether C#C[C@]1(O)C=CC2C3CCC4=CC(=O)CC[C@@]45CCC=C(C[C@@]21CC)C35 (stereo partly drawn) shows Emax of 80% or higher.
condition met

Does the reported Emax for C=C[C@]1(O)CCC2C3CCC4=CC(=O)CC[C@@]45CC=C[C@@H](C[C@@]21CC)C35 (stereo partly drawn) fall at or above the 80% mark?
condition met

Please check the record `CC(=O)O[C@]1(C(C)=O)CC[C@H]2[C@@H]3C=C(C)C4=CC(=O)CC[C@]4(C)[C@H]3CC[C@@]21C` and state if its Emax is at or above 80%.
condition not met

# bool: Emax of C#C[C@]1(O)CCC2C3CCC4=CC(=O)CC[C@@]45CC=C[C@@H](C[C@@]21CC)C35 (stereo partly drawn) >= 80%
condition met

Reference for the values: patent US20040121304A1
